tested on: brain ischemia; assay: Anoxic Nitrogen Test in Rats; assay type: in vivo, male Sprague-Dawley rats; settings: Rattus norvegicus, sc; 20 mg/kg, subcutaneously, 2 hr survival; read-out: Nitrogen Anoxia % Survival
readout: responders at 20 mg/kg (%)
Write it as a number; the unit % goes unstated.

[
  {
    "molecule": "Fc1ccc(C2=CCC(N3CCN(Cc4ccncc4)CC3)CC2)cc1 (centres unmarked)",
    "observedValue": 83
  },
  {
    "molecule": "Fc1ccc(C2=CCC(N3CCN(Cc4ccc5ccccc5n4)CC3)CC2)cc1 (centres unmarked)",
    "observedValue": 83
  },
  {
    "molecule": "Fc1ccc(CN2CCN(C3CC=C(c4ccc(F)cc4)CC3)CC2)cc1 (centres unmarked)",
    "observedValue": 92
  },
  {
    "molecule": "Clc1ccc2[nH]cc(C3=CCC(N4CCN(Cc5ccccc5)CC4)CC3)c2c1 (centres unmarked)",
    "observedValue": 100
  }
]

We next turn to a different molecule, shown below.
// responders at 20 mg/kg lookup, molecule = Fc1ccc(CN2CCN(C3CC=C(c4ccc(C(F)(F)F)cc4)CC3)CC2)cc1 (centres unmarked) , result: 100
